The reader will find reported % Purity values listed item by item below.
experiment: Influencing factor experiments (light, high temperature, high humidity, 30 days); assay type: physicochemical; conditions: Initial condition, day 0

compound | % Purity
CCC(=O)c1ccc(Cl)cc1-c1cc(=O)n([C@@H](CCOC(C)(C)C)C(=O)Nc2ccc(C(=O)O)cc2)cc1OC [Crystal form B] | 99.65%
CCC(=O)c1ccc(Cl)cc1-c1cc(=O)n([C@@H](CCOC(C)(C)C)C(=O)Nc2ccc(C(=O)O)cc2)cc1OC [Crystal form A] | 98.76%
CCC(=O)c1ccc(Cl)cc1-c1cc(=O)n([C@@H](CCOC(C)(C)C)C(=O)Nc2ccc(C(=O)O)cc2)cc1OC [Crystal form F] | 99.67%
CCC(=O)c1ccc(Cl)cc1-c1cc(=O)n([C@@H](CCOC(C)(C)C)C(=O)Nc2ccc(C(=O)O)cc2)cc1OC [Crystal form D] | 99.59%
